# Species: Rattus norvegicus
# protocol_description: Selectivity ratio of compound effect for antagonism of alpha1D adrenergic receptor in Wistar rat thoracic aorta to compound effect for antagonism of alpha1A adrenergic receptor in Wistar rat prostatic rat vas deferens
Given measured Selectivity ratio, output 1 if it is greater than or equal to 2 and -1 if not.

Sample answers from the record:
Ask | Tell me whether Selectivity ratio is at least 2 here: CCCCCC(=O)N1CCN(c2nc(N)c3cc(OC)c(OC)cc3n2)[C@@H]2CCCC[C@@H]21
Reply | -1

Ask | Entry CCCN(CCC)c1nc(N2CCN(C(=O)c3ccco3)[C@@H]3CCCC[C@@H]32)nc2cc(OC)c(OC)cc12 : is its Selectivity ratio no less than 2?
Reply | -1

Further cases:
Ask | I'd appreciate it if you could say whether COc1cc2nc(N3CCN(C(=O)OCc4ccccc4)[C@@H]4CCCC[C@@H]43)nc(N)c2cc1OC has Selectivity ratio at least equal to 2.
Reply | 1

Ask | Reported Selectivity ratio reaches at least 2 for COc1cc2nc(N3CCN(C(C)=O)[C@@H]4CCCC[C@@H]43)nc(N)c2cc1OC ?
Reply | 1

Ask | # check: Selectivity ratio of COc1cc2nc(N3CCN(C(=O)COc4c(OC)cccc4C(C)C)[C@H]4CCCC[C@H]43)nc(N)c2cc1OC is greater than or equal to 2
Reply | 1

Ask | # check: Selectivity ratio of COc1cc2nc(N3CCN(C(=O)OCc4ccccc4)[C@H]4CCCC[C@H]43)nc(N)c2cc1OC is greater than or equal to 2
Reply | 1

Ask | Answer whether Selectivity ratio of COc1cc2nc(N3CCN(C(=O)C4COc5ccccc5O4)[C@H]4CCCC[C@H]43)nc(N)c2cc1OC (single isomer, unassigned; (-)) [CYCLODOXAZOSIN] is greater than or equal to 2.
Reply | 1

Ask | Selectivity ratio >= 2 for COc1cc2nc(N3CCN(C(=O)C(C)(C)C)[C@H]4CCCC[C@H]43)nc(N)c2cc1OC ?
Reply | -1
